Method Notes: primary screen for suppressors of beta-catenin knockout HCT116 cell growth, colon tumor, human (AID 818);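 note: 0% = Hyamine 1622 control at 20 µM and 100% = untreated cell control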
Assay Conditions: CellTiter-Glo, 60 h, at 10 µM, stronger effect = lower value
The whole screen tested about 140,000 compounds, of which about 2,100 (1.5%) were called active. This is one part of a sample in which actives are shown more often than they occur.
Measure Name: viability (%)
Give the number; % is assumed, so skip it.

stdin: Field request: viability | item: COc1cc(/C=N\NC(=O)CNC(=O)c2cccc([N+](=O)[O-])c2)ccc1O
stdout: 79

stdin: Field request: viability | item: Cc1nc(Cl)c2oc3ccccc3c2n1
stdout: 2.84

stdin: Field request: viability | item: Cc1[nH]n(-c2ccc(Cl)cc2)c(=O)c1/C=N/n1c(C)nc2ccccc2c1=O
stdout: 22.4

stdin: Field request: viability | item: Cc1ccc(S(=O)(=O)N(Cc2ccc(Cl)cc2)c2ccccc2C(=O)NCc2cccnc2)cc1
stdout: 81.5

stdin: Field request: viability | item: CCCc1nc(SCC(=O)Nc2ccc(S(=O)(=O)N(C)C)cc2)c2ccccc2n1
stdout: 72.2

stdin: Field request: viability | item: O=C(Nc1cccc(Cl)c1)Nc1ccccc1NS(=O)(=O)c1cccs1
stdout: 71.1

stdin: Field request: viability | item: Cc1ccc(-n2c(SCC(=O)N/N=C/C=C/c3ccccc3[N+](=O)[O-])nc3ccccc3c2=O)cc1
stdout: 83.5

stdin: Field request: viability | item: Cn1cc(/C=C/c2nc3ccccc3c(=O)n2-c2cccc([N+](=O)[O-])c2)c2ccccc21
stdout: 66.3

stdin: Field request: viability | item: CCSc1nc(C)nc2c1oc1ccccc12
stdout: 95.4

stdin: Field request: viability | item: Cc1nc(N2CCCC2C(=O)O)c2oc3ccccc3c2n1 (stereo not given)
stdout: 95.6
